# measurement-protocol: Pharmacokinetic (PK) assay in mice, single intragastric administration
# Format: in vivo
# experimental-setup: mouse, po, Balb/c male mice, 5 mg/kg, plasma, read-out: Area under the curve AUC0-t
endpoint-label: AUC(0-t) (ng·h/mL)
Just the number please, in ng·h/mL, no unit attached.

smiles-input | unit-text | test-result
C[C@H](Nc1ccc2c(c1)N(C)CCn1cc(N3C(=O)OC[C@H]3C(F)F)nc1-2)C(N)=O | ng·h/mL | 1350

# next molecule below
// recorded AUC(0-t) for `C[C@H](Nc1ccc2c(c1)SCCn1cc(N3C(=O)OC[C@H]3C(F)F)nc1-2)C(N)=O` : 3440
